molecular target: Neuropeptides B/W receptor type 1 (Homo sapiens) (UniProt P48145); assay: GPR7 antagonist potency, late-stage follow-up, cell-based, fluorescence, dose response, set 2 (AID 504868); conditions: GPR7-expressing cells, fluorescence antagonist readout; run 2
readout: IC50

Problem: Look up IC50 for this compound: COc1ccc(Oc2c(C#N)cnn(-c3ccc(C(C)C)cc3)c2=O)cc1
Result: 2410 nM

Problem: Look up IC50 for this compound: COC(=O)c1cnn(-c2ccc(C(C)C)cc2)c(=O)c1Oc1ccc(OC)cc1
Result: 1880 nM

Problem: Look up IC50 for this compound: Cc1ccc(-n2ncc(Cl)c(Oc3ccc(OC(F)(F)F)cc3)c2=O)cc1
Result: 518 nM
